The measurements presented in this section are drawn from patent US20240076386A1.

Molecular target: T1, cynomolgus monkey E-selectin extracellular domain with 10 His purification tail (cynomolgus monkey, UniProt P16581 22-554 (human entry))
T1 construct: also called cynomolgus E-selectin; truncated cynomolgus monkey E-selectin
T1 chain: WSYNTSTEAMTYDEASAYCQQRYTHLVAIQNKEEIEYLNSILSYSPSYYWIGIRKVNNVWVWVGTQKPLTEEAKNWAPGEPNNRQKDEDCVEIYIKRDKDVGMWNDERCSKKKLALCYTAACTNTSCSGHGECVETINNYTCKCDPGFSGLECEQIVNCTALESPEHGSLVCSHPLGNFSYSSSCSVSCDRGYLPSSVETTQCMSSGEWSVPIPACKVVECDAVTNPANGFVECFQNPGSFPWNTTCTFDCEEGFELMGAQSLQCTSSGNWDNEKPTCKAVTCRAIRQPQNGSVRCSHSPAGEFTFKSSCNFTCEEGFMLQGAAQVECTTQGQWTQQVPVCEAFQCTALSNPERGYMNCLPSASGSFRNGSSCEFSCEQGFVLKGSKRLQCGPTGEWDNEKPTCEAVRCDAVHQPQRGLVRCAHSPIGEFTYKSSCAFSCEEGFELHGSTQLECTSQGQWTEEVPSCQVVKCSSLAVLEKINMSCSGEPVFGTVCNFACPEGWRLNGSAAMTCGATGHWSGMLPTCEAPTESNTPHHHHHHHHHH
Assay: AlphaLISA competition vs sialyl Lewis A-PAA-biotin
pEC50: −log10 of the molar value.
result-type: pEC50

[
  {
    "binder": "anti-E-selectin antibody 0170 chimera (antibody, human IgG1, kappa, V domains shown, rat VH/VL on effector-null human IgG1 and human kappa) VH: EVQLQQSGAELGKPGTSVKLSCKVSGYSIRSTYMHWVNQRPGKGLEWVGRIDPANGNTIYAERFKNKATLTADTSSNTAYMQLSQLKSDDTAIYFCAVEILGIFDYWGQGVMVTVSS VL: DIQMTQSPSFLSASVGDRVTINCKASQNIDKYLDWYQQKLGEAPKLLMYNTNSLHTGIPSRFSGSGSGTDFTLTISSLQPEDVATYFCLQHNSGYTFGAGTKLELKR",
    "result-type": "pEC50",
    "result": "> 9.00"
  },
  {
    "binder": "anti-E-selectin antibody 0164 chimera (antibody, human IgG1, kappa, V domains shown, rat VH/VL on effector-null human IgG1 and human kappa) VH: EVQLQQSGAEFGKPGTSVKLSCKVSGYNIRSSYMHWVNQRPGKGLEWIGRIDPANGNTIYAEKFKIKAILTADSSSNTAYMQLSQLKSDDTAIYFCAMDLYSTSEYWGQGVMVTVSS VL: DIQMTQSPSFLSASVGDRVTINCKTSQNINRYLNWYQQKLGEAPKLLIYNANSLQTGIPSRFSASGSGTDFTLTINSLQPEDVATYFCLQDNSWPLTFGSGTKLEIKR",
    "result-type": "pEC50",
    "result": "> 9.00"
  },
  {
    "binder": "anti-E-selectin antibody 0039 chimera (antibody, human IgG1, kappa, V domains shown, rat VH/VL on effector-null human IgG1 and human kappa) VH: QVQLKETGPGLVQPTQTLSITCTVSGFSLTGYYMQWVRQTPGKGLEWMGFIRSSGSTEYNSEFKSRLSISRDTSKNQVFLKMNSLKTEDTGVYYCARCPYKYSSFVYVGVMDAWGQGAPVTVSS VL: EIVMTQSPTSMSTSIGERVTLNCKASQTVGINVDWYQQTPGQPPKLLIYGASNRHTGVPDRFTGSGFGRDFTLTISNVEAEDLAVYCCLQYGSIPHTFGPGTKLELKR",
    "result-type": "pEC50",
    "result": "< 7.20"
  },
  {
    "binder": "anti-E-selectin antibody 0159 chimera (antibody, human IgG1, kappa, V domains shown, rat VH/VL on effector-null human IgG1 and human kappa) VH: EVQLQQSGAELGKPGTSVKLSCKVSGYNIRSTYMHWVSQRPGKGLEWIGRIDPANGNTIYAEKFKRKATLTADTSSNTAYMQLSQLKSDDRAIYFCAMEVRVSFEYWGQGVMVTVSS VL: DIQMTQSPSFLSASVGDRVTINCKASQNINKYLDWYQQKLGEGPKLLIYYTNNLHTGIPSRFSGSGSGTDFTLTISSLQPEDVATYFCLQHDSGYTFGAGTKLELKR",
    "result-type": "pEC50",
    "result": "> 9.00"
  },
  {
    "binder": "anti-E-selectin antibody 0180 chimera (antibody, human IgG1, kappa, V domains shown, rat VH/VL on effector-null human IgG1 and human kappa) VH: EVQLQQSGAELGKPGTSVKLSCKVSGYKIRSSYMHWVNQRPGKGLEWIGRIDPANGNTIYGDKFKSKATLTSDTSSNTAYIQLSQLKSDDTAIYFCAIDIGTTFDYWGQGVMVTVSS VL: DIQMTQSPSFLSASVGDRVTINCKASQHINRYLNWYQQKLGEAPKLLIYDANNLQTGIPSRFSGSGSGTDFTLTISSLQPEDVATYFCLQHNSWPNTFGAGTKLELKR",
    "result-type": "pEC50",
    "result": "> 9.00"
  }
]
